- TGT: T1, His-tagged human B7-H3 (human, UniProt Q5ZPR3-2 29-245, limits assumed)
- T1 construct: Bought His-tagged protein coated on the ELISA plate; also called hu B7-H3; CD276
- T1 sequence (looked up): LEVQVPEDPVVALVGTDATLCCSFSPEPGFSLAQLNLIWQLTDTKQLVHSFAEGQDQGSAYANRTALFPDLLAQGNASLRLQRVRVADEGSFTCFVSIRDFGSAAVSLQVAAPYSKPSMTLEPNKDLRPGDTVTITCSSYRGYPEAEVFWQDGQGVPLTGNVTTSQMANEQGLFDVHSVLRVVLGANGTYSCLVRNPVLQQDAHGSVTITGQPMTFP
- PROCEDURE SUMMARY: ELISA OD450 on hu B7-H3 over OD450 on mu B7-H3
Reported hu:mu ratio values for the following binders.
# answer = number (no unit)

{"BINDER": "40633p1.1.B3 (scFv, V domains shown, Tested as scFv-Fc (Expi293 supernatant)) VH: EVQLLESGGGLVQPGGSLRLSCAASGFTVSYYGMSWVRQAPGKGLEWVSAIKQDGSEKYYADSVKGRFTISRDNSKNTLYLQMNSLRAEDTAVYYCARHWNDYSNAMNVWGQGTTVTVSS VL: QSVLTQPPSASGTPGQRVTISCSGSTSNIGRESVYWYQQLPGTAPKLLIYTIDQRPSGVPDRFSGSKSGTSASLAISGLQSEDEADYYCGTWDDSLNAWVFGGGTKLTVL", "NUMERIC VALUE": 1.11}

# evaluate next
IN: Find the measured hu:mu ratio of 40511p1.1.G3 (scFv, V domains shown, Tested as scFv-Fc (Expi293 supernatant)) VH: DVQLVESGGGVVRPGESLTLSCAASGFTINSYAVSWVRQAPGEGLEWVSGISGSGVRYYADSVKGRFTISRDDSNNTLYLQMNSLRAEDTAVYYCARSNKVTWNNFFDYWGLGTLVTVSS VL: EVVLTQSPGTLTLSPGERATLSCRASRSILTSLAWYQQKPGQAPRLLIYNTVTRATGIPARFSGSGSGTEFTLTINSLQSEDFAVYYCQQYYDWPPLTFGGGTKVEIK and report it.
OUT: 1.24
